Molecular target: APRT1 (TbbAPRT1) (Trypanosoma brucei, UniProt Q57V32)
Construct: full-length ORF, codon optimized, expressed in Pichia pastoris; His6/mCherry tag removed with TEV protease; homodimer
Sequence (Q57V32 1-235): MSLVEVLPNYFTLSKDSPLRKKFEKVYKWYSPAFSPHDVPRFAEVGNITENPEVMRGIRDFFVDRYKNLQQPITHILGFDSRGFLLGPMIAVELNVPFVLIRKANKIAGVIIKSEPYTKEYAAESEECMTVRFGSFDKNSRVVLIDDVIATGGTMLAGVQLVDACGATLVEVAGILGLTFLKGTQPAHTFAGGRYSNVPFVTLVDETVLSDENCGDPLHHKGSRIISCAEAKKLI
Assay: coupled myokinase/pyruvate kinase/lactate dehydrogenase assay, NADH at […] nm
Conditions: read-out: Apparent inhibition parameters^b
pKi: −log10 of the molar value.

- entry-smiles: "Nc1ncnc2cc[nH]c12"
  target-under-test: "APRT1 (TbbAPRT1) (Trypanosoma brucei, UniProt Q57V32)"
  pKi: 3.81
